- Tgt: T1, Cbx7 Q9D (human, UniProt O95931 7-66, Q9D)
- T1 construct: chromodomain of human Cbx7 (UniProt O95931) with Q9D; source: E. coli BL21(DE3), purified (Ni-NTA); tags removed with TEV protease
- T1 sequence: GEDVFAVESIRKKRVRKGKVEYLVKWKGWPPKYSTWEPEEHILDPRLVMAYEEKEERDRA
- Assay explanation: fluorescence polarisation; 0.5 nM FITC-labeled peptide, chromodomain serially diluted (wild type 200-0.2 µM; Cbx7.V1 50 µM-50 nM); 25 mM HEPES pH 7.5, 150 mM NaCl, 1 mM DTT, 0.01% TritonX-100; 30 min at 25 °C; one-site total binding model
- Experimental parameters: both partners purified
The entries below come with measured pKd values attached.
Scale explanation: pKd corresponds to minus log10 of a concentration expressed in moles per litre.

Binder: ARTKQTARKSTGGKAPR (trimethyl-lysine at K9 (Kme3); fluorescein isothiocyanate (FITC) on the N-terminus, histone H3 N-terminal tail, residues 1-17; source: synthetic peptide (GenScript)) [FITC-labeled H3K9me3 peptide]
pKd: 4.91

Alright, here's another binder for you.
## Input Identify the reported pKd for the following entry. KQLATKAARKSAPATGGVK (trimethyl-lysine at K27 (Kme3); fluorescein isothiocyanate (FITC) on the N-terminus, histone H3 tail, residues 18-36; source: synthetic peptide (GenScript)) [FITC-labeled H3K27me3 peptide]
## Output 4.01
